Give measured protein stability index for each item. Keep answers brief.
B1: RSPH3 (parent)
chain: KAASLARNLAKRRRTYLGGAAGRS

- Variants of: B1
- protocol_notes: protein stability index of a GFP-peptide fusion (GPS, HEK-293T) (PSI 1-6); higher = more stable;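 note: lentivirally expressed fusions sorted by FACS into six bins by GFP to DsRed ratio, PSI derived from sequencing read proportions per bin multiplied by bin number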
- stated_conditions: c terminus: a fixed tail appended
Give bare numbers.

Provide reported protein stability index for each item, in the same order as listed.
1. KAASLARNLAKRRRTYLGGGAGRS [A20G]
2. KAASLARNPAKRRRTYLGGAAGRS [L9P]
3. KAASLGRNLAKRRRTYLGGAAGRS [A6G]
4. KAASLARNLAKRRRTYLGGAAGRD [S24D]
5. KAASLARNLAKRRRTLLGGAAGRS [Y16L]
6. KAASLARNLAKRRRTYLGGAAGRE [S24E]
7. KAASLARNLAKRRRTYLGAAAGRS [G19A]
8. KAASLARNLAKRRRTYLGGSAGRS [A20S]

-- reply
[3.39, 3.94, 3.27, 3.31, 2.29, 2.01, 2.32, 1.72]

Hi! Can you tell me protein stability index for each of these variants?
1. KAASLARNLAKRRRTYSGGAAGRS [L17S]
2. KAASLARNLAKRRRTYLGGAAGWS [R23W]
3. KQASLARNLAKRRRTYLGGAAGRS [A2Q]
4. KAASLARNLATRRRTYLGGAAGRS [K11T]
5. KANSLARNLAKRRRTYLGGAAGRS [A3N]
6. KAGSLARNLAKRRRTYLGGAAGRS [A3G]
7. KAASLARNLAKRRRTYGGGAAGRS [L17G]

-- reply
1. 2.75
2. 1.61
3. 3.13
4. 1.56
5. 2.69
6. 3.72
7. 2.66
